The origin of these recorded values is the supplement of paper PMC10724198.

// reported protein stability index per item
# Tested on: Saccharomyces cerevisiae
# TEST PROTOCOL: protein stability index of tFT-peptide fusion (C-terminal peptide) (PSI (0-1 scale)); higher = more stable (slower turnover)
# CONDITION SET: genetic background: das1 deletion; temperature: 30 C
EXPERIMENTAL READOUT: protein stability index

- SEQUENCE CODE: "IVCGDGSIHWFQ [FAU1 C-terminal 12 aa]"
  EXPERIMENTAL READOUT: "protein stability index"
  REPORTED VALUE: 0.735
- SEQUENCE CODE: "ILTQGGHIIKKK [MNL2 C-terminal 12 aa]"
  EXPERIMENTAL READOUT: "protein stability index"
  REPORTED VALUE: 0.715
- SEQUENCE CODE: "RRIIESINKSQG [HAT1 C-terminal 12 aa]"
  EXPERIMENTAL READOUT: "protein stability index"
  REPORTED VALUE: 0.659
- SEQUENCE CODE: "EAQTSRAKNELS [PHD1 C-terminal 12 aa]"
  EXPERIMENTAL READOUT: "protein stability index"
  REPORTED VALUE: 0.686
- SEQUENCE CODE: "VKDLYKRLTIQA [GPI1 C-terminal 12 aa]"
  EXPERIMENTAL READOUT: "protein stability index"
  REPORTED VALUE: 0.518
- SEQUENCE CODE: "LRKRLSCYMLIL [YDR114C C-terminal 12 aa]"
  EXPERIMENTAL READOUT: "protein stability index"
  REPORTED VALUE: 0.576
- SEQUENCE CODE: "EESDSPESTAFY [PMC1 C-terminal 12 aa]"
  EXPERIMENTAL READOUT: "protein stability index"
  REPORTED VALUE: 0.699
- SEQUENCE CODE: "LEKVLNQIGLKN [YNL011C C-terminal 12 aa]"
  EXPERIMENTAL READOUT: "protein stability index"
  REPORTED VALUE: 0.687
- SEQUENCE CODE: "ALQVLEERMVNP [YOL107W C-terminal 12 aa]"
  EXPERIMENTAL READOUT: "protein stability index"
  REPORTED VALUE: 0.705
- SEQUENCE CODE: "LVRFIEAEKFVG [SNX3 C-terminal 12 aa]"
  EXPERIMENTAL READOUT: "protein stability index"
  REPORTED VALUE: 0.712
- SEQUENCE CODE: "YTINYETNTVEY [NUP133 C-terminal 12 aa]"
  EXPERIMENTAL READOUT: "protein stability index"
  REPORTED VALUE: 0.641
- SEQUENCE CODE: "PEAEGPTVEEVD [SSA1 C-terminal 12 aa]"
  EXPERIMENTAL READOUT: "protein stability index"
  REPORTED VALUE: 0.703

* * *

# Tested on: Saccharomyces cerevisiae
# TEST PROTOCOL: protein stability index of tFT-peptide fusion (C-terminal peptide) (PSI (0-1 scale)); higher = more stable (slower turnover)
# CONDITION SET: genetic background: wild type; temperature: 30 C
Binary classification by protein stability index, with 0.6 as an inclusive lower bound for criterion met; all other cases are criterion not met.

- SEQUENCE CODE: "PFLSLPFLFPSS"
  CLASSIFICATION: "criterion not met"
- SEQUENCE CODE: "YVCRCGCLVKSV"
  CLASSIFICATION: "criterion met"
- SEQUENCE CODE: "PPPPTSFSPGTL"
  CLASSIFICATION: "criterion met"
- SEQUENCE CODE: "FNCIFHMLRFLR"
  CLASSIFICATION: "criterion met"
- SEQUENCE CODE: "SCLGSGVSWGVW"
  CLASSIFICATION: "criterion met"
- SEQUENCE CODE: "GGGCVGGGSSCA"
  CLASSIFICATION: "criterion met"
- SEQUENCE CODE: "CLPHSLPHPPPH"
  CLASSIFICATION: "criterion met"
- SEQUENCE CODE: "VVGVVVCWGRGW"
  CLASSIFICATION: "criterion not met"
- SEQUENCE CODE: "RFWGWCSAVLSS"
  CLASSIFICATION: "criterion met"
- SEQUENCE CODE: "RGRLVVGAGRED"
  CLASSIFICATION: "criterion met"
- SEQUENCE CODE: "RCCLDLLIFPCS"
  CLASSIFICATION: "criterion met"
- SEQUENCE CODE: "PSASPPPPARQP"
  CLASSIFICATION: "criterion met"
- SEQUENCE CODE: "LTPEPPRPPTPY"
  CLASSIFICATION: "criterion met"
- SEQUENCE CODE: "KMNKTEYINGMT"
  CLASSIFICATION: "criterion met"
- SEQUENCE CODE: "RRVKRGGARKEA"
  CLASSIFICATION: "criterion met"
- SEQUENCE CODE: "SLSLSFVLSSCS"
  CLASSIFICATION: "criterion met"
- SEQUENCE CODE: "DLRDQDAQTTST"
  CLASSIFICATION: "criterion met"
- SEQUENCE CODE: "KKKKKKKKKNNK"
  CLASSIFICATION: "criterion met"
- SEQUENCE CODE: "KPKKKNPREKPV"
  CLASSIFICATION: "criterion met"
- SEQUENCE CODE: "PLPLPSPAPPYS"
  CLASSIFICATION: "criterion met"
- SEQUENCE CODE: "HVPQPNTVCPHL"
  CLASSIFICATION: "criterion met"
- SEQUENCE CODE: "CFPSFVTFSSLF"
  CLASSIFICATION: "criterion met"
- SEQUENCE CODE: "RCRGPVYIPPGT"
  CLASSIFICATION: "criterion met"
- SEQUENCE CODE: "GLTGAATVPHSA"
  CLASSIFICATION: "criterion met"
- SEQUENCE CODE: "SKTQRKQIIKKQ"
  CLASSIFICATION: "criterion met"
- SEQUENCE CODE: "PLSDDPRRPLST"
  CLASSIFICATION: "criterion met"
- SEQUENCE CODE: "KDTDTAHETERK"
  CLASSIFICATION: "criterion met"
- SEQUENCE CODE: "KHSRKPTHKKLI"
  CLASSIFICATION: "criterion met"
- SEQUENCE CODE: "DFPPRPTPLSSL"
  CLASSIFICATION: "criterion met"
- SEQUENCE CODE: "VVWVYSMLFSIW"
  CLASSIFICATION: "criterion not met"
- SEQUENCE CODE: "VFWLLVAVLRYW"
  CLASSIFICATION: "criterion not met"
- SEQUENCE CODE: "FASALAPLSAVA"
  CLASSIFICATION: "criterion not met"
- SEQUENCE CODE: "LFGGCRLVGSVV"
  CLASSIFICATION: "criterion met"
- SEQUENCE CODE: "FLVLFYCTFWVR"
  CLASSIFICATION: "criterion not met"
- SEQUENCE CODE: "RKTKIKKLGRDK"
  CLASSIFICATION: "criterion met"
- SEQUENCE CODE: "AGALYGNPCPPL"
  CLASSIFICATION: "criterion met"
- SEQUENCE CODE: "PVLGYLTRGLWL"
  CLASSIFICATION: "criterion met"
- SEQUENCE CODE: "ERSHGEKGVFYL"
  CLASSIFICATION: "criterion met"
- SEQUENCE CODE: "GGGARWAGLGEG"
  CLASSIFICATION: "criterion met"
- SEQUENCE CODE: "PPPGPSPLAAPP"
  CLASSIFICATION: "criterion met"
- SEQUENCE CODE: "TMVAVTSILGGL"
  CLASSIFICATION: "criterion met"
- SEQUENCE CODE: "GVEVAGCPGARG"
  CLASSIFICATION: "criterion met"
- SEQUENCE CODE: "WSGREGRGEWGW"
  CLASSIFICATION: "criterion met"
- SEQUENCE CODE: "PPPVDLPTRLIP"
  CLASSIFICATION: "criterion met"
- SEQUENCE CODE: "DRLNLFSSFEGT"
  CLASSIFICATION: "criterion met"
- SEQUENCE CODE: "FLSFECRFPFQW"
  CLASSIFICATION: "criterion met"
- SEQUENCE CODE: "RLLRLLTALPPL"
  CLASSIFICATION: "criterion met"
- SEQUENCE CODE: "LRPKESQEYIHR"
  CLASSIFICATION: "criterion met"
- SEQUENCE CODE: "WVGRIRGMEGWM"
  CLASSIFICATION: "criterion met"
- SEQUENCE CODE: "PTPLCPPLAVRL"
  CLASSIFICATION: "criterion met"
- SEQUENCE CODE: "CTYHLPFYNVLF"
  CLASSIFICATION: "criterion met"
- SEQUENCE CODE: "LGLLIFQWARVL"
  CLASSIFICATION: "criterion not met"
- SEQUENCE CODE: "RALSLPPLLLVL"
  CLASSIFICATION: "criterion not met"
- SEQUENCE CODE: "GQVAKVKVRKKK"
  CLASSIFICATION: "criterion met"
- SEQUENCE CODE: "GGEGRGRVWEIS"
  CLASSIFICATION: "criterion met"
- SEQUENCE CODE: "RRVDVRKGRLTP"
  CLASSIFICATION: "criterion met"
- SEQUENCE CODE: "WVSPALEALYRK"
  CLASSIFICATION: "criterion met"
- SEQUENCE CODE: "VVECGERWWCLT"
  CLASSIFICATION: "criterion met"
- SEQUENCE CODE: "LSRHLILFIVIR"
  CLASSIFICATION: "criterion not met"
- SEQUENCE CODE: "YLPYRTCSWKYE"
  CLASSIFICATION: "criterion not met"
- SEQUENCE CODE: "GRRNGLCENPRG"
  CLASSIFICATION: "criterion met"
- SEQUENCE CODE: "VLGKIIKLSTYS"
  CLASSIFICATION: "criterion met"
- SEQUENCE CODE: "AGCRFRWHTVDC"
  CLASSIFICATION: "criterion met"
- SEQUENCE CODE: "CGLYNQFCLFLY"
  CLASSIFICATION: "criterion not met"
- SEQUENCE CODE: "RGVGEGFRAGCG"
  CLASSIFICATION: "criterion met"
- SEQUENCE CODE: "DRWGGDWMERGG"
  CLASSIFICATION: "criterion met"
- SEQUENCE CODE: "PPPLPPPAPPPR"
  CLASSIFICATION: "criterion met"
- SEQUENCE CODE: "RGGAGRRWGRGK"
  CLASSIFICATION: "criterion met"
- SEQUENCE CODE: "VAVGIVGGWWGV"
  CLASSIFICATION: "criterion met"
- SEQUENCE CODE: "GPGFRSGVELVW"
  CLASSIFICATION: "criterion met"
- SEQUENCE CODE: "LEGNRGYKRNGK"
  CLASSIFICATION: "criterion met"
- SEQUENCE CODE: "TLSPAPPPPLPP"
  CLASSIFICATION: "criterion met"
- SEQUENCE CODE: "GVVCWLVVTGFL"
  CLASSIFICATION: "criterion not met"
- SEQUENCE CODE: "VLVLSFLYRMVK"
  CLASSIFICATION: "criterion not met"
- SEQUENCE CODE: "LLLPVFRFFFVN"
  CLASSIFICATION: "criterion not met"
- SEQUENCE CODE: "PSLRLPVSVPTL"
  CLASSIFICATION: "criterion met"
- SEQUENCE CODE: "PPTPPPPSGLPP"
  CLASSIFICATION: "criterion met"
- SEQUENCE CODE: "TTKTGQVEIYKV"
  CLASSIFICATION: "criterion met"
- SEQUENCE CODE: "PPLPPSPPRSPP"
  CLASSIFICATION: "criterion not met"
- SEQUENCE CODE: "GGMAWGPVCGAG"
  CLASSIFICATION: "criterion met"
